# assayProtocol: Serum stability test
# Assay type: in vitro ADME
# setupConditions: human, 25% human serum (supernatant after centrifugation)
Where a SMILES comes first, the peptide text is derived from it. [ ]: non-standard residue; d: D form. 2Nal = N[C@@H](Cc1ccc2ccccc2c1)C(=O)O
parameter: remaining at 24 h, 5 µM

Tell us which remaining at 24 h, 5 µM value is on record for N=C(N)NCCC[C@@H]1NC(=O)[C@H](CCCNC(=N)N)NC(=O)[C@H](CCCNC(=N)N)NC(=O)[C@H](Cc2ccc3ccccc3c2)NC(=O)[C@H](Cc2ccccc2)NC(=O)[C@H](CCC(N)=O)NC(=O)[C@H](CCCNC(=N)N)NC1=O [cFΦR4] (cyclo(F[2Nal]RRRRQ)) > 70%

The reported measurements were obtained from paper PMC4075989.
